Target: human TRPM8 (Homo sapiens)
Construct: expressed in transfected cells; host or cells: T-REx-CHO (Chinese hamster ovary), tetracycline-induced
Sequence (Q7Z2W7 whole entry): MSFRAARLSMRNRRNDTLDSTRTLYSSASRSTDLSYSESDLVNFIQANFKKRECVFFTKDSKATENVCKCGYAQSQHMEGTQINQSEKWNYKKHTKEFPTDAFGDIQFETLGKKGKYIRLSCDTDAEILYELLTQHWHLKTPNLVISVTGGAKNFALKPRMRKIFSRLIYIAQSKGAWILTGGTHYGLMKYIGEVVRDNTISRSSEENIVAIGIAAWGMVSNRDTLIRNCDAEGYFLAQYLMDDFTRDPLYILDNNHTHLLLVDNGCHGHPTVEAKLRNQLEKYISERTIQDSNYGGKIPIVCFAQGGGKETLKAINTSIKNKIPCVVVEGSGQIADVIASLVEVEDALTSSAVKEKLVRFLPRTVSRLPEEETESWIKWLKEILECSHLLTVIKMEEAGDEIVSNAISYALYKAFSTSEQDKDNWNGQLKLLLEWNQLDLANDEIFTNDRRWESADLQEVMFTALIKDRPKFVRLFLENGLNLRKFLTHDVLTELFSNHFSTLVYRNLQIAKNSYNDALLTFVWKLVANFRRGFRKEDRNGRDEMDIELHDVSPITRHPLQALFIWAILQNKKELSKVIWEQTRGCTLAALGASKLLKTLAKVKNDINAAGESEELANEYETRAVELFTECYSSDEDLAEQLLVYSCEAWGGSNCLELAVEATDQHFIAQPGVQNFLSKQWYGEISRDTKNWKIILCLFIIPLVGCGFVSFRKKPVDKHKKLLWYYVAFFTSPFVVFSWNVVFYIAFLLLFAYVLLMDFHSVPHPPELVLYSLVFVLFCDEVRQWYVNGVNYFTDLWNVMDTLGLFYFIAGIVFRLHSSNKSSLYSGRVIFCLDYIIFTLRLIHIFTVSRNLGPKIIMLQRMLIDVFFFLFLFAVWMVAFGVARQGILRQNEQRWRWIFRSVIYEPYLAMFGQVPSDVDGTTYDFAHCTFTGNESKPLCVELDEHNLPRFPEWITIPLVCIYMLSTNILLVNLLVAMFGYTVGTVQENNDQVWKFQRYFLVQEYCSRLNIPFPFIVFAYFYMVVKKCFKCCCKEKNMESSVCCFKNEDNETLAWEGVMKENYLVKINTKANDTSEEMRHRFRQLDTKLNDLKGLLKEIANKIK
Experiment: agonist-induced 45Ca2+ uptake assay, CHO cells expressing human TRPM8
Type: cell-based
Details: cold 10°C; CHO cells; mean ± SD, one experiment in triplicate wells; read-out: IC50, cold induced human TRPM8 channel activation
Observation Type: IC50 (nM)
Provide the reading as a plain figure in nM.

Please look up its IC50: COc1cc(CN(CCN)C(=O)c2cccs2)ccc1OCc1ccccc1
3
